Recorded SI TOX HELA for the following compounds
test system: HeLa cells; test: Cytotoxicity in HeLa cells, ATP content (ATPlite kit); conditions: three days incubation, CC50 = 50% concentration for cytotoxicity
recorded endpoint: SI TOX HELA

>>> reported_measurement("Cc1cccc2ncnc(N3CCCCC3c3cc4nc(N5CCC5)cc(N5CCNCC5)n4n3)c12 (centres unmarked)")
4.6
>>> reported_measurement("Cc1ccc2ncnc(N3CCCCC3c3cc4nc(N5CC(O)C5)c(C)cn4n3)c2c1 (centres unmarked)")
"<4"
>>> reported_measurement("Cc1ccc2ncnc(N3CCCCC3c3cc4nc(N5CCC5)c(C)cn4n3)c2c1 (centres unmarked)")
"<4.6"
>>> reported_measurement("Cc1cn2nc(C3CCCCN3c3ncnc4cccc(C)c34)cc2nc1N1CC[C@@H](N)C1 (stereo in doubt)")
4.5
>>> reported_measurement("Cc1cn2nc(C3CCCCN3c3nc(NS(C)(=O)=O)nc4cccc(C)c34)cc2nc1N1CC(O)C1 (centres unmarked)")
"<4"
>>> reported_measurement("CS(=O)(=O)Nc1nc(N2CCCC[C@H]2c2cc3nc(N4CCC4)cc(N4CCOCC4)n3n2)c2cc(Cl)ccc2n1 (stereo in doubt) [P32]")
"<4"
>>> reported_measurement("Cc1ccc2nc(C)nc(N3CCCCC3c3cc4nc(N5CC(O)C5)c(C)cn4n3)c2c1 (centres unmarked)")
"<4.6"
>>> reported_measurement("Cc1cccc2nc(C(=O)O)nc(N3CCCCC3c3cc4nc(N5CCC5)cc(N5CCOCC5)n4n3)c12 (centres unmarked)")
"<4.6"
>>> reported_measurement("Cc1cn2nc([C@H]3CCCCN3c3ncnc4cccc(C)c34)cc2nc1N1CC(O)C1")
"<4.6"
>>> reported_measurement("Cc1ccc2ncnc(N3CCCCC3c3cc4nc(N5CCC(N)C5)ccn4n3)c2c1 (stereo in doubt)")
4.3
>>> reported_measurement("Clc1ccc2ncnc(N3CCCCC3c3cc4nc(N5CCC5)cc(N5CCOCC5)n4n3)c2c1 (centres unmarked) [P1]")
4.4
>>> reported_measurement("Cc1cccc2ncnc(N3CCCCC3c3cc4nc(N5CCC5)cc(N5CCN(C(=O)NC(C)C)CC5)n4n3)c12 (centres unmarked)")
4.5
>>> reported_measurement("Cc1ccc2nc(C)nc(N3CCCC[C@@H]3c3cc4nc(N5CC(O)C5)c(C)cn4n3)c2c1")
4.2
>>> reported_measurement("Cc1cn2nc(C3CCCCN3c3ncnc4cccc(C)c34)cc2nc1N1CC(O)C1 (centres unmarked)")
"<4.6"
>>> reported_measurement("Cc1cn2nc([C@@H]3CCCCN3c3ncnc4cccc(C)c34)cc2nc1N1CC(O)C1")
"<4.6"
>>> reported_measurement("Cc1cccc2nc(C(=O)NS(C)(=O)=O)nc(N3CCCCC3c3cc4nc(N5CCC5)cc(N5CCOCC5)n4n3)c12 (centres unmarked)")
"<4"
>>> reported_measurement("CN(C)S(=O)(=O)NC(=O)c1nc(N2CCCCC2c2cc3nc(N4CCC4)cc(N4CCOCC4)n3n2)c2ccccc2n1 (centres unmarked)")
"<4"

###

// reported SI TOX HELA per item
tested on: HeLa cells; assay: Cytotoxicity in HeLa cells, ATP content (ATPlite kit); conditions: three days incubation, CC50 = 50% concentration for cytotoxicity
recorded endpoint: SI TOX HELA

>>> reported_measurement("Cc1ccc2nc(NS(C)(=O)=O)nc(N3CCCC[C@@H]3c3cc4nc(N5CCC5)cc(N5CCOCC5)n4n3)c2c1 [P7]")
"<4"
>>> reported_measurement("Cc1ccc2ncnc(N3CCCCC3c3cc4nc(N5CCC5)cc(N5CCOCC5)n4n3)c2c1 (stereo not shown) [P4]")
"<4"
>>> reported_measurement("COC(=O)N(C(=O)OC)c1nc(N2CCCCC2c2cc3nc(N4CCC4)cc(N4CCOCC4)n3n2)c2c(C)cccc2n1 (stereo not shown) [P28]")
"<4"
>>> reported_measurement("Cc1cccc2nc(C(=N)NO)nc(N3CCCCC3c3cc4nc(N5CCC5)cc(N5CCOCC5)n4n3)c12 (stereo not shown) [P30]")
4.6

###

Reported SI TOX HELA values for the following molecules.
test system: HeLa cells; test: Cytotoxicity in HeLa cells, ATP content (ATPlite kit); conditions: three days incubation, CC50 = 50% concentration for cytotoxicity
recorded endpoint: SI TOX HELA

>>> reported_measurement("Cc1nc(N2CCCCC2c2cc3nc(N4CC(N)C4)c(C)cn3n2)c2c(C)cccc2n1 (centres unmarked)")
4.5
>>> reported_measurement("Cc1ccc2ncnc(N3CCCC[C@@H]3c3cc4nc(N5CC[C@H](N)C5)ccn4n3)c2c1")
4.3
>>> reported_measurement("Cc1c(C2CC2)nc2cc(C3CCCCN3c3ncnc4cccc(C)c34)nn2c1N1CCOCC1 (centres unmarked)")
4.6
>>> reported_measurement("Fc1cccc2ncnc(N3CCCCC3c3cc4nc(N5CCC5)cc(N5CCOCC5)n4n3)c12 (centres unmarked)")
4.3

###

Recorded SI TOX HELA, one value per entry.
tested on: HeLa cells; assay: Cytotoxicity in HeLa cells, ATP content (ATPlite kit); settings: three days incubation, CC50 = 50% concentration for cytotoxicity
recorded endpoint: SI TOX HELA

>>> reported_measurement("Cc1cccc2nc(-c3cnoc3)nc(N3CCCCC3c3cc4nc(N5CCC5)cc(N5CCOCC5)n4n3)c12 (centres unmarked) [P72]")
4.5
>>> reported_measurement("CSc1nc(N2CCCCC2c2cc3nc(N4CCC4)cc(N4CCOCC4)n3n2)c2cc(C)ccc2n1 (centres unmarked) [P57]")
4.5
>>> reported_measurement("Cc1nc(N2CCCCC2c2cc3nc(N4CC(O)C4)c(C)cn3n2)c2c(C)cccc2n1 (centres unmarked) [P37]")
4.3
>>> reported_measurement("Cc1cn2nc(C3CCCCN3c3ncnc4cccc(C)c34)cc2nc1N1CC(N)C1 (centres unmarked) [P26]")
4.3
>>> reported_measurement("CCc1ccc2ncnc(N3CCCCC3c3cc4nc(N5CCC5)cc(N5CCOCC5)n4n3)c2c1C (centres unmarked) [P63]")
4.4

###

system: HeLa cells; assay: Cytotoxicity in HeLa cells, ATP content (ATPlite kit); conditions: three days incubation, CC50 = 50% concentration for cytotoxicity
The entries below come with measured SI TOX HELA values attached.
recorded endpoint: SI TOX HELA

>>> reported_measurement("Cc1ccc2nc(NS(C)(=O)=O)nc(N3CCCCC3c3cc4nc(N5CCC5)cc(N5CCOCC5)n4n3)c2c1 (stereo not shown) [P6]")
"<4.0"
>>> reported_measurement("CCc1cccc2ncnc(N3CCCCC3c3cc4nc(N5CCC5)cc(N5CCOCC5)n4n3)c12 (stereo not shown) [P58]")
"<4"
>>> reported_measurement("COCCOC(=O)Nc1nc(N2CCCCC2c2cc3nc(N4CCC4)cc(N4CCOCC4)n3n2)c2cc(N3CCOCC3)ccc2n1 (stereo not shown) [P14]")
"<4"
>>> reported_measurement("Cc1ccc2ncnc(N3CCCCC3c3cc4nc(N5CCC5)cc(C)n4n3)c2c1 (stereo not shown) [P21]")
"<4.6"

###

test system: HeLa cells; test: Cytotoxicity in HeLa cells, ATP content (ATPlite kit); conditions: three days incubation, CC50 = 50% concentration for cytotoxicity
recorded endpoint: SI TOX HELA

>>> reported_measurement("Cc1nc2c(N3CCCCC3c3cc4nc(N5CCC5)cc(N5CCOCC5)n4n3)ncnc2o1 (stereo not drawn)")
"<4.6"
>>> reported_measurement("Cc1cccc2nc(NS(C)(=O)=O)nc(N3CCCCC3c3cc4nc(N5CCC5)cc(N5CCOCC5)n4n3)c12 (stereo not drawn)")
"<4.6"
>>> reported_measurement("Cc1cccc2ncnc(N3CCCC[C@H]3c3cc4nc(N5CCC5)cc(N5CCOCC5)n4n3)c12")
"<4.3"
